Test system: UACC-257
test.method.notes: NCI tumour cell line growth inhibition, 48 h
Calls of active or inactive are those of the source. Cut-off read from the data, not from the text of the source: active = GI50 up to about 1.1 µM and inactive = higher.
// values below are reported GI50
property: GI50

>  <compound>
O/N=C1/C(=C/c2ccc(Cl)cc2)CCCC1C(NO)c1ccc(Cl)cc1 (stereo not given)

>  <property>
GI50

>  <result>
17.2 µM (inactive)

$$$$
>  <compound>
N=C(N)C1CN(CC=O)C(=O)NC1=O (stereo not given)

>  <property>
GI50

>  <result>
> 100 µM (inactive)

$$$$
>  <compound>
O=C1c2ccccc2N2OC3C4CCC(C4)C3C12c1ccccc1 (stereo not given)

>  <property>
GI50

>  <result>
70 µM (inactive)

$$$$
>  <compound>
CN(C)/C(=N/C(=S)Nc1ccccc1)SCc1ccccc1

>  <property>
GI50

>  <result>
36.6 µM (inactive)

$$$$
>  <compound>
CCCCCCCCCCCCCC(=O)NO

>  <property>
GI50

>  <result>
29.2 µM (inactive)

$$$$

* * *

Test system: HCT-116
test.method.notes: NCI tumour cell line growth inhibition, 48 h
The source made the active and inactive calls. Rule as the data show it: active = GI50 up to about 1.1 µM and inactive = higher.

>  <compound>
C=C[C@@]1(C)CC2CC[C@]3(C)C(C)=CC(=O)CC3[C@]2(C)CC1O (stereo partly specified)

>  <GI50>
91.4 µM (inactive)

$$$$
>  <compound>
CCOC(=O)NC(C(F)(F)F)(C(F)(F)F)P(=O)(OCC)OCC

>  <GI50>
31 µM (inactive)

$$$$
>  <compound>
Cc1cnc2c(c1)C(=O)C1=C(OC(C)(C)CC1O)C2=O (stereo unspecified)

>  <GI50>
14.4 µM (inactive)

$$$$
>  <compound>
NC(=S)NS(=O)(=O)c1ccc(F)cc1F

>  <GI50>
> 100 µM (inactive)

$$$$
>  <compound>
CN1Cc2ccccc2/C=C\c2ccccc21

>  <GI50>
78.2 µM (inactive)

$$$$
>  <compound>
CCCC(CC)c1cc(O)c(O)cc1C(CC)CCC (stereo unspecified)

>  <GI50>
> 10 µM (inactive)

$$$$
>  <compound>
C=C1C(=O)O[C@@H]2[C@@H]3O[C@@H](C[C@@H]13)[C@](C)(O)CC/C=C(\C)CCC[C@@H]2C

>  <GI50>
8.13 µM (inactive)

$$$$
>  <compound>
c1ccc(C2=NN3CN(N2)c2ccccc2OCCCOc2ccccc23)cc1

>  <GI50>
> 100 µM (inactive)

$$$$
>  <compound>
CSc1nnnc2ccccc12

>  <GI50>
> 100 µM (inactive)

$$$$
>  <compound>
COC(=O)C12OC3CO[Si](C(C)C)(C(C)C)O[Si](C(C)C)(C(C)C)OC3C1Oc1nc(=O)ccn12 (stereo unspecified)

>  <GI50>
16.1 µM (inactive)

$$$$
>  <compound>
O=C(c1ccccc1)c1nnn(Cc2ccccc2Cn2nnc(C(=O)c3ccccc3)c2C(=O)c2ccccc2)c1C(=O)c1ccccc1

>  <GI50>
> 100 µM (inactive)

$$$$
>  <compound>
CC[C@@]12N=C(N(C)C)C[C@]1(O)ON=C2C

>  <GI50>
> 100 µM (inactive)

$$$$
>  <compound>
CCOC(=O)c1cnc2sc3ccc4ccccc4c3n2c1=O

>  <GI50>
41.4 µM (inactive)

$$$$
>  <compound>
COc1ccc(C=O)cc1OS(=O)(=O)C(F)(F)C(F)(F)C(F)(F)C(F)(F)F

>  <GI50>
27.2 µM (inactive)

$$$$
>  <compound>
N#CC(C#N)=Cc1ccc2c(c1)OC(Cl)O2 (stereo unspecified)

>  <GI50>
18.9 µM (inactive)

$$$$
>  <compound>
COc1cc2c(cc1OC)C(C(c1ccccc1)c1ccccc1)N(C)CC2 (stereo unspecified)

>  <GI50>
> 58.6 µM (inactive)

$$$$

* * *

Tested on: A498
test.method.notes: NCI tumour cell line growth inhibition, 48 h
Activity calls are given as the source filed them. Cut-off read from the data, not from the text of the source: active = GI50 up to about 1.1 µM and inactive = higher.
// values below are reported GI50
property: GI50

>  <molecule>
Cc1c(C(=O)CC(=O)C(=O)NC2C3CC4CC(C3)CC2C4)[n+]([O-])c2ccccc2[n+]1[O-] (configuration not stated)

>  <property>
GI50

>  <result>
> 100 µM (inactive)

$$$$
>  <molecule>
CC(C)(c1ccc(OC#N)cc1)c1ccc(OC#N)cc1

>  <property>
GI50

>  <result>
> 100 µM (inactive)

$$$$
>  <molecule>
COC(=O)C(C(=O)C(=O)Nc1cccc(C)c1)C1=NC(N)SS1 (configuration not stated)

>  <property>
GI50

>  <result>
> 100 µM (inactive)

$$$$
>  <molecule>
Oc1cc(Cl)ncn1

>  <property>
GI50

>  <result>
> 100 µM (inactive)

$$$$
>  <molecule>
COc1ccc([C@@]23Oc4cc(OC)cc(OC)c4[C@]2(O)[C@H](O)[C@H](C(N)=O)[C@H]3c2ccccc2)cc1 [DIDESMETHYLROCAGLAMIDE]

>  <property>
GI50

>  <result>
< 0.01 µM (active)

$$$$
>  <molecule>
O=C(O)c1ccc(OCc2nc3cc(C(F)(F)F)ccc3nc2-c2ccccc2)cc1

>  <property>
GI50

>  <result>
> 100 µM (inactive)

$$$$
>  <molecule>
C=CCOc1ccc(C2(c3ccc(OCC=C)cc3)C(=O)Nc3ccccc32)cc1

>  <property>
GI50

>  <result>
> 10 µM (inactive)

$$$$
>  <molecule>
CC(=O)NC1C(OCc2ccccc2)OC(COC(=O)CCCCCNc2ccc([N+](=O)[O-])c3[nH]c4ccc(O)cc4c(=O)c23)C(O)C1OC(C)C(=O)N[C@@H](C)C(=O)N[C@H](CCC(=O)OCc1ccccc1)C(N)=O (some centres not stated)

>  <property>
GI50

>  <result>
2.1 µM (inactive)

$$$$
>  <molecule>
CCC1CN2CCc3c([nH]c4ccccc34)[C@@](C(=O)OC)(c3cc4c(cc3OC)N(C)C3C(O)(C(=O)OC)C(C(=O)OC)C5(CC)C=CCN6CCC43C65)C[C@@H](C2)[C@@H]1C(C)(C)C (some centres not stated)

>  <property>
GI50

>  <result>
0.306 µM (active)

$$$$
>  <molecule>
Cc1c(C(=O)/C=C/c2ccc(N(C)C)cc2)c(=O)n(-c2ccccc2)n1C

>  <property>
GI50

>  <result>
> 100 µM (inactive)

$$$$
>  <molecule>
COC(=O)CCCC(=O)NC1=C(Nc2ccc(OC)cc2)C(=O)c2ccccc2C1=O

>  <property>
GI50

>  <result>
20.7 µM (inactive)

$$$$
>  <molecule>
Cc1[nH]n(-c2ccc(S(=O)(=O)O)cc2)c(=O)c1/N=N/c1ccccc1

>  <property>
GI50

>  <result>
> 100 µM (inactive)

$$$$

* * *

System: U-251
test.method.notes: NCI tumour cell line growth inhibition, 48 h
The source made the active and inactive calls. Cut-off read from the data, not from the text of the source: active = GI50 up to about 1.1 µM and inactive = higher.

>  <compound>
COC(=O)C1Cc2c([nH]c3ccccc23)C(c2ccccc2O)N1 (stereo not given)

>  <GI50>
> 100 µM (inactive)

$$$$
>  <compound>
[O-]c1c[n+](CCCC[n+]2cc([O-])on2)no1

>  <GI50>
> 100 µM (inactive)

$$$$
>  <compound>
O=C(O)c1ccc(C2=Cc3cc(Cl)ccc3OC2)cc1

>  <GI50>
> 100 µM (inactive)

$$$$
>  <compound>
CC(C)(CO)CNc1cc(=O)[nH]c(N)n1

>  <GI50>
> 100 µM (inactive)

$$$$
>  <compound>
c1nc(OCC2CCCCC2)c2nc[nH]c2n1

>  <GI50>
58.3 µM (inactive)

$$$$

* * *

Tested on: OVCAR-8
test.method.notes: NCI tumour cell line growth inhibition, 48 h
Calls of active or inactive are those of the source. Rule as the data show it: active = GI50 up to about 1.1 µM and inactive = higher. Where a SMILES comes first, the peptide text is derived from it. Square brackets hold non-standard residues; d marks the D form. Peptide text beside a SMILES is read from it. [ ]: non-standard residue; d: D form. The star is where a group is joined. * marks the point of attachment. X26 = COC1=CC(=O)N(C(=O)[C@@H](O*)C(C)C)[C@H]1Cc1ccccc1; Phe(4-NO2) = N[CH](Cc1ccc([N+](=O)[O-])cc1)C(=O)O; NMeL = CN[C@@H](CC(C)C)C(=O)O; Hexanoyl = CCCCCC(=O)*; Boc = CC(C)(C)OC(=O)*; OtBu = CC(C)(C)O*
Outcome codes: y (active), n (inactive)

>  <compound>
COC(=O)[C@@]12C3=NO[C@]1(C(=O)OC)C(O[Si](C)(C)C(C)(C)C)[C@H]1OC(C)(C)O[C@H]1[C@@H]2C(OCc1ccccc1)CC3 (some centres not stated)

>  <qualitative.label>
n

$$$$
>  <compound>
CC(=O)OCCN1c2ccccc2Sc2cnccc21

>  <qualitative.label>
n

$$$$
>  <compound>
O=P(O)(O)C(NCC(O)CN1CCOCC1)P(=O)(O)O (configuration not stated)

>  <qualitative.label>
n

$$$$
>  <compound>
C=CCSC1=N/C(=C\c2ccc(C)cc2)C(=O)N1CC=C

>  <qualitative.label>
n

$$$$
>  <compound>
C[Si](C)(C)C#C[I+]c1ccccc1

>  <qualitative.label>
n

$$$$
>  <compound>
COC(=O)CCCCC/C(=C\C(=O)C(Cl)(Cl)Cl)OC

>  <qualitative.label>
n

$$$$
>  <compound>
COc1ccc([C@@]23Oc4cc(OC)cc(OC)c4[C@]2(O)[C@H](O)[C@H](C(N)=O)[C@H]3c2ccccc2)cc1 [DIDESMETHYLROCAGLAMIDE]

>  <qualitative.label>
y

$$$$
>  <compound>
CCOC(=O)c1c(C)c2c(n1C)CCc1c[nH]nc1-2

>  <qualitative.label>
n

$$$$
>  <compound>
CCN(CC)CCCn1cnc2ncccc2c1=O

>  <qualitative.label>
n

$$$$
>  <compound>
CCOc1ccccc1/C=C1\NC(=O)N(/C=C2\C(=O)Oc3ccccc3C2=O)C1=O

>  <qualitative.label>
n

$$$$
>  <compound>
[N-]=[N+]=Nc1c(-c2ccccc2)c(=O)n(-c2ccccc2)c2ccccc12

>  <qualitative.label>
n

$$$$
>  <compound>
N=C(N)SCc1cc(Cl)cc(Cl)c1O

>  <qualitative.label>
n

$$$$
>  <compound>
COc1ccc(NC(=O)Oc2cc(C)c3ccc(=O)cc-3o2)c(OC)c1.COc1ccc(NC(=O)Oc2ccc3c(C)cc(=O)oc3c2)c(OC)c1

>  <qualitative.label>
n

$$$$
>  <compound>
C/N=c1\ss/c(=N\C(=S)N(C)C)n1C1CCCCC1

>  <qualitative.label>
n

$$$$
>  <compound>
CN(C)/C(=N/C(=S)Nc1ccccc1)SCc1ccccc1

>  <qualitative.label>
n

$$$$
>  <compound>
O=C(O)c1ccc(NC(NC(=O)C(C(F)(F)F)C(F)(F)F)(C(F)(F)F)C(F)(F)F)cc1

>  <qualitative.label>
n

$$$$
>  <compound>
CC[C@@H]1C[C@@H](O)[C@@H]2[C@H](O)[C@H](O)CN2C1

>  <qualitative.label>
n

$$$$
>  <compound>
CC(C)(c1ccc(OC#N)cc1)c1ccc(OC#N)cc1

>  <qualitative.label>
n

$$$$
>  <compound>
O=c1[nH]c(=O)n(CCOCP(=O)(O)O)nc1Br

>  <qualitative.label>
n

$$$$
>  <compound>
CCN(CC)C(=S)SS(=O)(=O)c1ccc(C)cc1

>  <qualitative.label>
n

$$$$
>  <compound>
CC(C#N)(NO)C(C)(C#N)NO (configuration not stated)

>  <qualitative.label>
n

$$$$
>  <compound>
CCCCN1C(=O)c2c(-c3sccc3N)sc(-c3sccc3N)c2C1=O

>  <qualitative.label>
n

$$$$
>  <compound>
N#Cc1c(N)n(-c2nc3ccccc3s2)c(=O)c2cc([N+](=O)[O-])ccc12

>  <qualitative.label>
n

$$$$
>  <compound>
COc1nc(=O)n(C2CC(N=[N+]=[N-])C(CO)O2)cc1C (configuration not stated)

>  <qualitative.label>
n

$$$$
>  <compound>
CSC1=Nc2ccccc2N=C(c2ccccc2)C1

>  <qualitative.label>
n

$$$$
>  <compound>
COC(=O)C(Cc1ccc([N+](=O)[O-])cc1)NC(=O)C(CC(=O)OC(C)(C)C)NC(=O)OC(C)(C)C (configuration not stated) (Boc-Asp(OtBu)-[Phe(4-NO2)]-OMe; configuration not given here)

>  <qualitative.label>
n

$$$$
>  <compound>
CCOC(=O)c1c(N2CCOCC2)ncn(-c2cccc(Cl)c2)c1=O

>  <qualitative.label>
n

$$$$
>  <compound>
CC(C)(CO)CNc1cc(=O)[nH]c(N)n1

>  <qualitative.label>
n

$$$$
>  <compound>
CC(C)C(NCc1c2ccccc2nc2ccccc12)C(=O)O (configuration not stated)

>  <qualitative.label>
n

$$$$
>  <compound>
COC(=O)/C(=C(/C)c1ccco1)P(=O)(OC)OC

>  <qualitative.label>
n

$$$$
>  <compound>
C=CC1(C)CC(=O)C2(O)C(C)(O1)C(OC(C)=O)C(O)C1C(C)(C)CCC(O)C12C (configuration not stated)

>  <qualitative.label>
n

$$$$
>  <compound>
CCCCCC(=O)N[C@H](C(=O)N[C@H](C(=O)N(C)[C@@H](CC(C)C)C(=O)N1CCC[C@H]1C(=O)N1CCC[C@H]1C(=O)O[C@H](C(=O)N1C(=O)C=C(OC)[C@@H]1Cc1ccccc1)C(C)C)C(C)C)C(C)C (Hexanoyl-VV[NMeL]PP-X26)

>  <qualitative.label>
n

$$$$
>  <compound>
COc1cc2c(cc1OC)C(SC)C(=O)N(Cc1cccc(OC)c1OC)CC2 (configuration not stated)

>  <qualitative.label>
n

$$$$
>  <compound>
COc1cccc(C2CC(C)(N3CCCC3)Oc3cc4c(cc32)OCO4)c1O (configuration not stated)

>  <qualitative.label>
n

$$$$
>  <compound>
CCOC(=O)c1nc2ccc([N+](=O)[O-])cc2c2c1CCO2

>  <qualitative.label>
n

$$$$
>  <compound>
C=CCNC1=NC(=O)C(CC(=O)Nc2ccc([N+](=O)[O-])cc2[N+](=O)[O-])S1 (configuration not stated)

>  <qualitative.label>
n

$$$$
>  <compound>
C=C1C(=O)O[C@@H]2[C@@H]3O[C@@H](C[C@@H]13)[C@](C)(O)CC/C=C(\C)CCC[C@@H]2C

>  <qualitative.label>
n

$$$$
